Assay: binders of probe aFST on microarray, primary screen, stem cell growth factor project, biochemical, small-molecule microarray, fluorescence 635/667 (AID 1086);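 further: score merges 667 nm fluorescence with signal-to-noise of each printed compound spot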
Settings: higher = more signal
Readout Label: composite z-score

Compound	Experimental Value
C[C@@H]1C=CCC(=O)OC[C@H]2O[C@@H](C=C[C@@H]2O)[C@H](C)C=CCC(=O)OC[C@H]2O[C@H]1C=C[C@@H]2O	0.0915
CO[C@]12C=C(Br)[C@@H](C[C@@H]1c1ccccc1)[C@@]1(CO1)C2=O	0.0254
C=CC[C@@]1(C(=O)NCC(O)CO)N=C(c2ccc(OCCCO)cc2)O[C@@H]1c1ccccc1CN=[N+]=[N-] (stereo not given in full)	0.966
COCCOC(=O)N1C(=O)[C@@]2(c3cc(C#CC4=CCCCC4)ccc31)[C@H](c1ccc(O)cc1)N1[C@H](c3ccccc3)[C@H](c3ccccc3)OC(=O)[C@H]1[C@@H]2C(=O)N1CCCCCCC1	0.547
C=C[C@H](OC)[C@@H](OC(=O)Nc1ccc(SC)cc1)c1ccc(OC)c(O)c1	-0.595
CCCCO[C@H]1C[C@H]2C(Br)=C[C@@]1(CO)C(=O)[C@]21CO1	0.162
COCCCNC(=O)[C@@H]1c2ccccc2C(=O)N(CC23CC4CC(CC(C4)C2)C3)[C@H]1c1ccc(CO)cc1	0.327
C=CC[C@]1(C(=O)NCC(O)CO)N=C(c2ccc(OCCCO)cc2)O[C@H]1c1ccccc1 (stereo not given in full)	-0.0064
C=CC(=O)O[C@@H](Cc1ccccc1)[C@H]1C2C=CCCC=C2CN1Cc1cccc(Cl)c1 (stereo not given in full)	-0.254
COc1ccc(NN2C(C(O)c3cc(OC)c(OC)c(OC)c3)C=CC3C(=O)N(C4CCCCC4)C(=O)C32)cc1 (stereo not given)	1.51
CCN1C(C)=C(C(=O)OC)[C@@H](c2ccccc2)N2C(=O)[C@@]3(C(=O)OC)O[C@@]12[C@@H]1C(=O)N(C)C(=O)[C@@H]13	0.264
Cc1ccc(S[C@]2(C(=O)NC3CC3)CC(=O)N(Cc3cc(C(F)(F)F)cc(C(F)(F)F)c3)[C@@H]2c2ccc(CO)cc2)cc1	0.0733
C[C@H]1COC(=O)[C@@H]2CCCN2C(=O)[C@@H](C)COC(=O)[C@@H]2CCCN2C1=O	-0.041
COC(=O)Cn1c(C(=O)N2CCCC2)cc2c1C[C@H]1CN(C(=O)c3ccccc3)[C@@](Cc3ccccc3)(C(=O)OC)[C@@H]21	0.76
C=CCC(OC(C)=O)[C@@H]1[C@@H](N(Cc2cccc3ccccc23)C(=O)c2ccc(C)cc2)c2cc(OCCCO)ccc2N1C(=O)c1ccc(-c2ccccc2)cc1 (stereo not given in full)	0.159
Cc1ccc(S[C@]2(C(=O)O)CC(=O)N(Cc3ccccc3)[C@@H]2c2ccc(CO)cc2)cc1	0.262
NC(=O)NCC#Cc1ccc2c(c1)[C@]1(C(=O)N2)[C@H](c2ccccc2OCCO)N2[C@H](c3ccccc3)[C@H](c3ccccc3)OC(=O)[C@H]2[C@@H]1C(=O)N1CCN(c2ncccn2)CC1	0.315
Cc1ccc(N2C(=O)c3ccccc3[C@](C)(C(=O)NCC(C)C)[C@@H]2c2ccc(CO)cc2)nc1	-0.542
CCCN1C(=O)[C@@]2(CCS(=O)(=O)c3ccccc3)N=C(c3ccc(OCCCO)cc3)O[C@H]2c2ccccc21	0.328
CN(C)CCCC[C@@H]1NC(=O)[C@@H]2C[C@H](C(=O)O)[C@H](c3ccc(O)cc3)N2C1=O	0.212

Data origin, for the record: PubChem BioAssay
